Tested on: HEK-293T
Assay: Multiplex assay against HEK293T
Format: toxicity, cell-based
Conditions: human, 48 h, 10 µM, compound concentration 10 uM, replicate 1
Measured parameter: Population Fragmented Nuclei (%)
Give the value in % but do not write % after it.

Query :: Please state recorded Population Fragmented Nuclei (%) (tested on HEK-293T) of CCCC(CCC)C(=O)O
Result :: 15

***
Query :: Write down the reported Population Fragmented Nuclei (%) of O=C(O)c1cc2ccccc2c(Cc2c(O)c(C(=O)O)cc3ccccc23)c1O , test system: HEK-293T.
Result :: 13

Query :: Item N#Cc1c(N)nc(SCc2csc(-c3ccc(Cl)cc3)n2)c(C#N)c1-c1ccc(OCCO)cc1 with HEK-293T - Population Fragmented Nuclei (%)?
Result :: 11

Query :: Report Population Fragmented Nuclei (%) for COc1cc(C(=O)N(CCCc2ccccc2)Cc2ccc(CC(=O)O)cc2)cc(OC)c1C tested on HEK-293T.
Result :: 12

Query :: Query Population Fragmented Nuclei (%) on HEK-293T for COc1cc(NC(=O)CCN2CCC(OC(=O)Nc3ccccc3-c3ccccc3)CC2)c(Cl)cc1CNC[C@H](O)c1ccc(O)c2[nH]c(=O)ccc12
Result :: 58

Query :: What measured Population Fragmented Nuclei (%) is associated with COc1ccc2c(c1)C(C(=O)N(Cc1ccc(N(C)C)cc1)c1ccc(C(C)C)cc1)CCC2.Cl (stereo not drawn) on HEK-293T?
Result :: 15

Query :: Any idea what Population Fragmented Nuclei (%) came out for C[C@H](NC(=O)c1c(C(F)F)nn(C)c1Oc1cccc(C(F)(F)F)c1)c1ccc(C(=O)O)cc1 on HEK-293T?
Result :: 18

Query :: Form field - read-out: Population Fragmented Nuclei (%); system: HEK-293T; submitted item: Cc1ccc(F)cc1C(=O)Nc1ccc(C(=O)N2Cc3cccn3Cc3ccccc32)c(Cl)c1
Result :: 9
